# experimental system: human A2a receptor (Homo sapiens (Human), UniProt P29274)
# Sequence (P29274 whole entry): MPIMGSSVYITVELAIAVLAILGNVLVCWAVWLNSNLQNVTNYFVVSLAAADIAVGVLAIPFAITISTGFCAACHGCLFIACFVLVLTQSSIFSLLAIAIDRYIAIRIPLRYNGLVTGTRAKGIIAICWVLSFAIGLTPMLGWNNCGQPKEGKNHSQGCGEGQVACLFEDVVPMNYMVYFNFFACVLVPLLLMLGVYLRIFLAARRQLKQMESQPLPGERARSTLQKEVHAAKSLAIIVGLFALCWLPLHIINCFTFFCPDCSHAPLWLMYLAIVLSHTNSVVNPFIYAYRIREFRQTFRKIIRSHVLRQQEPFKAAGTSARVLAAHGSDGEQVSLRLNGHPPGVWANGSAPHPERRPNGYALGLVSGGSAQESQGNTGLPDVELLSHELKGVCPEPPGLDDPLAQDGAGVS
# assay procedure: A2a competition binding assay using Scintillation Proximity technology
# settings: 0.25 μg of membranes from HEK293 cells expressing the human A2a receptor
The label is rule met for Ki below 3 nM and rule not met for Ki equal to or exceeding 3 nM.

Worked cases, answers included:
Nc1nc(C(=O)NCc2cccc3cccnc23)c2cccc(OC(F)(F)F)c2n1; rule met
COc1ccc(C)c(CNC(=O)c2nc(N)nc3c(F)cccc23)n1; rule met
COc1cccc2c(C(=O)NCc3cccc(C4CCC4)n3)nc(N)nc12; rule met
COc1cccc2c(C(=O)NCc3nc(C(C)(C)O)ccc3C)nc(N)nc12; rule met
Nc1nc(C(=O)NCc2cccc(-c3cnco3)n2)c2cccc(F)c2n1; rule not met

Inquiry: Lab note: Ki threshold 3 nM. Does this molecule come in strictly under it? "COc1cccc2c(C(=O)N[C@@H](CO)c3ccc4ccccc4n3)nc(N)nc12"
Reply text: rule not met

* * *

# experimental system: human A2a receptor (Homo sapiens (Human))
# assay procedure: A2a competition binding assay using Scintillation Proximity technology
# settings: 0.25 μg of membranes from HEK293 cells expressing the human A2a receptor
pKi: −log10 of the molar value.
Binary classification by pKi, with 9 as an inclusive lower bound for 1; all other cases are -1.

COc1cccc2c(C(=O)NCc3cccc(COc4ccc(F)cc4)n3)nc(N)nc12; 1
Cc1ccc(CNC(=O)c2nc(N)nc3c(F)cccc23)nc1; -1
COc1cccc2c(C(=O)N[C@H]3CCCc4cccnc43)nc(N)nc12; -1
Nc1nc(C(=O)NCc2cccc3c2NCCC3)c2cccc(F)c2n1; -1
COc1cccnc1CNC(=O)c1nc(N)nc2c(OC)cccc12; -1

Inquiry: In plain terms: is recorded pKi at least 9 for "Nc1nc(C(=O)NCc2cccc(C(F)F)n2)c2cccc(F)c2n1" ?
Reply text: -1

* * *

# experimental system: human A2a receptor (Homo sapiens (Human), UniProt P29274)
# assay procedure: A2a competition binding assay using Scintillation Proximity technology
# settings: 0.25 μg of membranes from HEK293 cells expressing the human A2a receptor
Known Ki of a selection of compounds
Give a bare numeral; the unit nM is implied.

The cases that follow already have their Ki on record.
Nc1nc(C(=O)NCc2ccccc2-c2ncccn2)c2cccc(F)c2n1; 0.9
COc1cccc2c(C(=O)NCc3cccn(C)c3=O)nc(N)nc12; 0.9
COc1cccc2c(C(=O)NCc3cccc(COCC4CC4)n3)nc(N)nc12; 1.3

Inquiry: Given the compound "COc1cccc2c(C(=O)NCc3cccc(-c4ccccn4)n3)nc(N)nc12" , what is its reported Ki?
Reply text: 1.2
